- run_description: Octanol/water partition coefficient
- Format: physicochemical
- condition_set: read-out: log P (octanol/water partition coefficient)
Examples of molecules with documented logP follow.
readout_kind: logP

INSERT INTO assay_data (smiles, numeric_value) VALUES
  ('O=C1C=C(N2CCOCC2)CN1c1ccc(OC(F)(F)F)cc1', 2.45),
  ('Cc1cccc(N2CC(N3CCCCC3)=CC2=O)c1', 2.66),
  ('COc1ccc(N2CC(N3CCOCC3)=CC2=O)cc1', 0.74),
  ('O=C1C=C(N2CCCC2)CN1c1ccc(Cl)cc1', 2.6);
